Origin of the recorded values: PubChem BioAssay (NCI)

Attribute: TGI
- Tested on: U251 CNS
- METHOD_NOTES: NCI tumour cell line growth inhibition, 48 h
Where a SMILES comes first, the peptide text is derived from it. The star is where a group is joined. Boc = CC(C)(C)OC(=O)*

[
  {
    "COMPOUND": "Fc1ccc(C2SCc3nc4ccccc4n32)c(F)c1 (stereo unspecified)",
    "TGI": "> 100 µM"
  },
  {
    "COMPOUND": "COc1cc(C(=O)C/C(CCC(=O)Nc2ccccc2[N+](=O)[O-])=N\\NC(N)=O)ccc1O",
    "TGI": "> 100 µM"
  },
  {
    "COMPOUND": "CC(C)(C)OC(=O)NC(Cc1ccc(O)cc1)C(=O)N1CCCC1C(=O)O (stereo not drawn) (Boc-Tyr-Pro-OH; configuration not given here)",
    "TGI": "> 100 µM"
  },
  {
    "COMPOUND": "O=C1OC(Cc2ccccc2)(N2CCCC2=O)C1c1ccccc1 (stereo unspecified)",
    "TGI": "> 100 µM"
  },
  {
    "COMPOUND": "COc1ccc(C(=O)/C=C/c2ccc(O)c(O)c2)c(OC)c1",
    "TGI": "16.6 µM"
  },
  {
    "COMPOUND": "CCOc1ccccc1C(=O)N1CCN(c2cc(Cl)cc(Cl)c2)CC1",
    "TGI": "14.3 µM"
  }
]
